# Measurement description: chemical genetic growth profiling, strain panel (AID 1159580);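 also: tested at 20 µM; growth read once vehicle control cultures reached saturation at 30 °C; 1 = growth at the plate median or of vehicle wells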
# Reported conditions: S. cerevisiae deletion strains, growth OD, locus YLL026W, active compounds read low
About 2,000 (36%) of roughly 5,500 compounds were called active. Not shown: some 18% with an inconclusive outcome. The list shows a part of the results.
Below, each entry is listed alongside its reported normalized growth.

- Compound: "C[C@]12CCC3c4ccc(O)cc4CCC3C1CCC2=O (stereo partly specified)"
  normalized growth: "0.999 (inactive)"
- Compound: "C[C@]12CCC3c4ccc(OC(=O)c5ccccc5)cc4CCC3C1CCC2=O (stereo partly specified)"
  normalized growth: "0.984 (inactive)"
- Compound: "CCCNC(=O)NS(=O)(=O)c1ccc(Cl)cc1"
  normalized growth: "1.02 (inactive)"
- Compound: "Fc1ccc([C@@H]2CCNC[C@H]2COc2ccc3c(c2)OCO3)cc1"
  normalized growth: "0.998 (inactive)"
- Compound: "CN1CCC[C@@H]1CCO[C@](C)(c1ccccc1)c1ccc(Cl)cc1"
  normalized growth: "0.988 (inactive)"
- Compound: "CC12CCC3C(=CCc4cc(O)ccc43)C1CCC2=O (stereo unspecified)"
  normalized growth: "0.988 (inactive)"

---

# Measurement description: chemical genetic growth profiling, strain panel (AID 1159580)
# Reported conditions: S. cerevisiae deletion strains, growth OD, locus YNL271C, strain bni1, active compounds read low
About 2,000 (36%) of roughly 5,500 compounds were called active. Another 18% or so got no clear call; they are omitted. Some of the results follow.
I'd appreciate it if you marked entries y when normalized growth is lower than 1 and n when it is not.

- Compound: "NC1(C(=O)O)CC1"
  Class assignment: "n"
- Compound: "COc1ccc2c(c1)OCC(Cc1ccc(OC)c(O)c1)C2=O (configuration not stated)"
  Class assignment: "y"

---

# Measurement description: chemical genetic growth profiling, strain panel (AID 1159580);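 also: tested at 20 µM; growth read once vehicle control cultures reached saturation at 30 °C; 1 = growth at the plate median or of vehicle wells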
# Reported conditions: S. cerevisiae deletion strains, growth OD, locus YOR270C, strain vph1
About 2,000 (36%) of roughly 5,500 compounds were called active. Inconclusive results (about 18%) are left out. No stated cut-off is given here; in the data, active means normalized growth mostly below about 0.91 (no sharp cut-off); inconclusive means no clear call, values can overlap the other calls; inactive means mostly above about 0.92. The list shows a part of the results.
Possible outcomes: active, inactive

- Compound: "COc1ccc2c(c1)OCC(Cc1ccc(O)c(OC)c1)C2=O (stereo not drawn)"
  Class assignment: "inactive"
- Compound: "Clc1ccc(COC(Cn2ccnc2)c2ccc(Cl)cc2Cl)cc1 (stereo not drawn)"
  Class assignment: "active"
- Compound: "CCN1C[C@@]2(COC)C3[C@@H](OC)[C@H]4[C@@H]1[C@]3(C(OC)C[C@H]2O)C1C[C@@]2(O)[C@H](OC(=O)c3ccccc3)C1[C@]4(OC(C)=O)[C@@H](O)[C@@H]2OC (stereo partly drawn)"
  Class assignment: "inactive"
- Compound: "Clc1ccc(CSC(Cn2ccnc2)c2ccc(Cl)cc2Cl)cc1 (stereo not drawn)"
  Class assignment: "active"
- Compound: "CC(=O)O[C@H]1C[C@@]2(C)[C@@H](C[C@@H](O)C3[C@]2(C)CC[C@H]2[C@H](C)[C@H](O)CC[C@]32C)/C1=C(/CCC=C(C)C)C(=O)O (stereo partly drawn)"
  Class assignment: "inactive"
- Compound: "Clc1ccc(COC(Cn2ccnc2)c2ccc(Cl)cc2Cl)c(Cl)c1 (stereo not drawn)"
  Class assignment: "active"
- Compound: "COC[C@]12CN(C=O)C3[C@@H]4[C@H](OC)C1[C@]3(C1CC3(O)C(OC)C(O)C4(OC(C)=O)C1C3OC(=O)c1ccccc1)[C@@H](OC)C[C@H]2O (stereo partly drawn)"
  Class assignment: "inactive"
- Compound: "Clc1ccc(CO/N=C(/Cn2ccnc2)c2ccc(Cl)cc2Cl)c(Cl)c1"
  Class assignment: "active"

---

# Measurement description: chemical genetic growth profiling, strain panel (AID 1159580);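 also: tested at 20 µM; growth read once vehicle control cultures reached saturation at 30 °C; 1 = growth at the plate median or of vehicle wells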
# Reported conditions: S. cerevisiae deletion strains, growth OD, locus YMR307W, strain GAS1
Out of some 5,500 compounds screened, about 2,000 (36%) were called active. Not shown: some 18% with an inconclusive outcome. Cut-off read from the data, not from the text of the source: active = normalized growth mostly below about 0.91 (no sharp cut-off); inconclusive = no clear call, values can overlap the other calls; inactive = mostly above about 0.92. This is one part of the list.
Possible outcomes: true (active), false (inactive)

- Molecule: "C[C@]12CCC3c4ccc(OC(=O)c5ccccc5)cc4CCC3C1CCC2=O (some centres not stated)"
  Class assignment: "false"
- Molecule: "C[C@@H]1CC[C@H]2C(C)(C)C3CC12CC[C@@]3(C)O (some centres not stated)"
  Class assignment: "false"
- Molecule: "CC(=O)O[C@]1(C)CC[C@@]23CC1C(C)(C)[C@@H]2CC[C@H]3C"
  Class assignment: "false"
- Molecule: "Cc1ccccc1/C=C/C1=NCCN1"
  Class assignment: "false"
- Molecule: "COc1ccccc1N1CCN(CCCCNS(=O)(=O)c2cccc3c(N(C)C)cccc23)CC1"
  Class assignment: "false"
- Molecule: "C[C@]12CCC3c4ccc(OC(=O)CCC(=O)O)cc4CCC3C1CCC2=O (some centres not stated)"
  Class assignment: "false"
- Molecule: "COc1cc2c(CCNC(C)=O)c[nH]c2cc1O"
  Class assignment: "false"
- Molecule: "CC(=O)Oc1ccc2c(c1)CCC1C2CC[C@]2(C)C(=O)CCC12 (some centres not stated)"
  Class assignment: "false"
- Molecule: "c1ccc2c(CC3=NCCN3)cccc2c1"
  Class assignment: "false"
- Molecule: "CCc1cccc(C)c1NC(=O)CC(C)(C)CC(=O)O"
  Class assignment: "false"
- Molecule: "O=C(Nc1cc(C(F)(F)F)cc(C(F)(F)F)c1)C(c1ccccc1)C1CCCC1 (configuration not stated)"
  Class assignment: "false"
- Molecule: "Cc1cc(/C=C/c2ccc3cc(N(C)C)ccc3[n+]2C)c(C)n1-c1ccccc1"
  Class assignment: "true"
- Molecule: "NC(=O)c1ncn(C2OC(CO)C(O)C2O)n1 (configuration not stated)"
  Class assignment: "false"
- Molecule: "CCC(=O)OC1[C@@H]2CC3=C4CC(=O)O[C@@H](c5ccoc5)[C@]4(C)CCC3[C@@](C)(C2=O)[C@@H](CC(=O)OC)C1(C)C (some centres not stated)"
  Class assignment: "false"
- Molecule: "CC12CCC3C(=CCc4cc(O)ccc43)C1CCC2=O (configuration not stated)"
  Class assignment: "false"
- Molecule: "CC(C)c1nc(N(C)S(C)(=O)=O)nc(-c2ccc(F)cc2)c1/C=C/[C@@H](O)C[C@@H](O)CC(=O)O"
  Class assignment: "false"
- Molecule: "CCOC(=O)C(O)(c1ccc(N)c(C)c1)C(F)(F)F (configuration not stated)"
  Class assignment: "false"
- Molecule: "N#Cc1cccc(CSC2=NCN(C3CC3)CN2)c1"
  Class assignment: "false"
- Molecule: "CCCN(CCC)C1Cc2cc(OC)c(OC)cc2C1"
  Class assignment: "false"
- Molecule: "O=C(CN1CCOCC1)Nc1cc(C(F)(F)F)cc(C(F)(F)F)c1"
  Class assignment: "false"
- Molecule: "Clc1ccc(C(c2ccc(Cl)cc2)n2cc[n+](CC(OCc3ccc(Cl)cc3Cl)c3ccc(Cl)cc3Cl)c2)cc1 (configuration not stated)"
  Class assignment: "true"
- Molecule: "CSc1ccc(C(=O)c2[nH]c(=O)[nH]c2C)cc1"
  Class assignment: "false"

---

# Measurement description: chemical genetic growth profiling, strain panel (AID 1159580);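 also: tested at 20 µM; growth read once vehicle control cultures reached saturation at 30 °C; 1 = growth at the plate median or of vehicle wells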
# Reported conditions: S. cerevisiae deletion strains, growth OD, locus YLR384C, strain iki3
Among all 5,500 compounds or so, about 2,000 (36%) were called active. About 18% were inconclusive and are not listed. No stated cut-off is given here; in the data, active means normalized growth mostly below about 0.91 (no sharp cut-off); inconclusive means no clear call, values can overlap the other calls; inactive means mostly above about 0.92. The list shows a part of the results.
Possible outcomes: TRUE for active, FALSE for inactive

- Molecule: "NC(C(=O)O)C(O)C(=O)O (centres undefined)"
  Class assignment: "FALSE"
- Molecule: "CC(C)c1nc(N(C)S(C)(=O)=O)nc(-c2ccc(F)cc2)c1/C=C/[C@@H](O)C[C@@H](O)CC(=O)O"
  Class assignment: "FALSE"
- Molecule: "COP(=S)(OC)Oc1ccc([N+](=O)[O-])cc1"
  Class assignment: "FALSE"
- Molecule: "CCC(=O)OC1[C@@H]2CC3=C4CC(=O)O[C@@H](c5ccoc5)[C@]4(C)CCC3[C@@](C)(C2=O)[C@@H](CC(=O)OC)C1(C)C (some centres undefined)"
  Class assignment: "FALSE"
- Molecule: "COc1cc2c(cc1OC)C1(O)C(=O)c3ccc(O)c(C(=O)O)c3OC1CO2 (centres undefined)"
  Class assignment: "FALSE"
- Molecule: "CC1C/C=C/C=C/C=C/C=C/C(O[C@@H]2O[C@H](C)[C@@H](O)[C@H](N)[C@@H]2O)CC2OC(O)(CC(O)CC3OC3/C=C/C(=O)O1)CC(O)C2C(=O)O (some centres undefined)"
  Class assignment: "FALSE"
- Molecule: "CN(C)C(=O)Oc1ccc[n+](C)c1"
  Class assignment: "FALSE"
- Molecule: "O=C(O)C(O)C(O)C(=O)O (centres undefined)"
  Class assignment: "FALSE"
- Molecule: "C=C1C(=O)[C@]23[C@H](O)[C@H]1CC[C@H]2[C@@]12CO[C@]3(O)[C@H](O)[C@@H]1C(C)(C)CC[C@@H]2O"
  Class assignment: "FALSE"
- Molecule: "CC(=O)C1CC[C@H]2C3CC[C@H]4C[C@H](O)CC[C@]4(C)C3CC[C@]12C (some centres undefined)"
  Class assignment: "FALSE"
- Molecule: "C=CCS(=O)C[C@H](N)C(=O)O (some centres undefined)"
  Class assignment: "FALSE"
- Molecule: "Cc1nnc(NS(=O)(=O)c2ccc(N)cc2)s1"
  Class assignment: "FALSE"
- Molecule: "CN(C/C=C/C#CC(C)(C)C)Cc1cccc2ccccc12"
  Class assignment: "TRUE"
- Molecule: "CC(C)(S)[C@@H](N)C(=O)O"
  Class assignment: "FALSE"
- Molecule: "CC12CCC3C(=CCc4cc(O)ccc43)C1CCC2=O (centres undefined)"
  Class assignment: "FALSE"
- Molecule: "CN(C)CCC(c1ccccc1)c1ccccn1 (centres undefined)"
  Class assignment: "FALSE"
- Molecule: "COc1ccc2c(c1)OCC(Cc1ccc(OC)c(OC)c1)C2=O (centres undefined)"
  Class assignment: "FALSE"
- Molecule: "C[C@@H]1CC[C@H]2C(C)(C)C3CC12CC[C@@]3(C)O (some centres undefined)"
  Class assignment: "FALSE"
- Molecule: "CC(=O)O[C@H]1C[C@@]2(C)[C@@H](C[C@@H](O)C3[C@]2(C)CC[C@H]2[C@H](C)[C@H](O)CC[C@]32C)/C1=C(/CCC=C(C)C)C(=O)O (some centres undefined)"
  Class assignment: "FALSE"
- Molecule: "NCCCNCCSP(=O)(O)O"
  Class assignment: "FALSE"
- Molecule: "N[C@@H](C(=O)O)[C@@H](O)[C@H](O)[C@H](O)CO"
  Class assignment: "FALSE"
- Molecule: "Nc1nc(F)nc2c1ncn2[C@@H]1O[C@H](COP(=O)(O)O)[C@@H](O)[C@@H]1O"
  Class assignment: "FALSE"
- Molecule: "COP(=S)(OC)Oc1ccc(Sc2ccc(OP(=S)(OC)OC)cc2)cc1"
  Class assignment: "FALSE"
- Molecule: "CC(O)(P(=O)(O)O)P(=O)(O)O"
  Class assignment: "FALSE"
- Molecule: "O=C(O)C1CCCNC1 (centres undefined)"
  Class assignment: "FALSE"
- Molecule: "CC(=O)O[C@H]1C[C@@H](OC(C)=O)C(C)(C)C2C[C@@H](O)[C@]3(C)C(CC[C@@]4(C)[C@H](c5ccoc5)OC(=O)[C@H]5O[C@]543)[C@]21C (some centres undefined)"
  Class assignment: "FALSE"
- Molecule: "NCC[C@@H](O)C(=O)N[C@@H]1C[C@H](N)[C@@H](O[C@H]2O[C@H](CN)[C@@H](O)[C@H](O)[C@H]2O)[C@H](O)[C@H]1O[C@H]1O[C@H](CO)[C@@H](O)[C@H](N)C1O (some centres undefined)"
  Class assignment: "FALSE"
- Molecule: "c1ccc2c(CC3=NCCN3)cccc2c1"
  Class assignment: "FALSE"
- Molecule: "CC(=O)O[C@@H]1CC2C(C)(C)[C@H](O)C=C[C@]2(C)C2CC[C@@]3(C)[C@H](c4ccoc4)OC(=O)C4OC43[C@@]21C (some centres undefined)"
  Class assignment: "FALSE"
- Molecule: "NC(N)=NCCN1CCCCCCC1"
  Class assignment: "FALSE"
- Molecule: "CC(=O)O[C@@H]1CC2C(C)(C)[C@H](O)CC[C@]2(C)C2CC[C@@]3(C)[C@H](c4ccoc4)OC(=O)C4OC43[C@@]21C (some centres undefined)"
  Class assignment: "FALSE"
- Molecule: "CC1[C@H](C)OC(=O)CC(O)CC(O)CC(O)CCC(O)C(O)C[C@]2(O)CC(O)C(C(=O)O)C(CC(OC3O[C@H](C)[C@@H](O)[C@H](N)[C@@H]3O)/C=C/C=C/C=C/C=C/CC/C=C/C=C/[C@H](C)[C@H]1O)O2 (some centres undefined)"
  Class assignment: "TRUE"
- Molecule: "CCCNC(=O)NS(=O)(=O)c1ccc(Cl)cc1"
  Class assignment: "FALSE"
- Molecule: "COc1cc(NS(C)(=O)=O)ccc1Cc1c2ccccc2nc2ccccc12"
  Class assignment: "FALSE"
- Molecule: "O=C(O)[C@@H](S)[C@@H](S)C(=O)O"
  Class assignment: "FALSE"
- Molecule: "C[C@@H]1CC2C3CCC4=CC(=O)C=C[C@]4(C)[C@@]3(F)[C@@H](O)C[C@]2(C)[C@@]1(O)C(=O)CO (some centres undefined)"
  Class assignment: "FALSE"
- Molecule: "COc1ccc2c(c1)OCC(Cc1ccc(OC)c(O)c1)C2=O (centres undefined)"
  Class assignment: "FALSE"
- Molecule: "CC(=O)O[C@]1(C)CC[C@@]23CC1C(C)(C)[C@@H]2CC[C@H]3C"
  Class assignment: "FALSE"
- Molecule: "C=NC(C(=O)NC1C(=O)N2C1SC(C)(C)C2C(=O)O)c1ccccc1 (centres undefined)"
  Class assignment: "FALSE"
